protocol: pharmacokinetic evaluation in mice (oral and IV), blood levels by LC-MS/MS
Type: in vivo, C57/BL6 mice
runConditions: male C57/BL6 mice, oral 20 mg/kg, blood
propertyLabel: Cmax (nM)
Numbers only, in nM.

I have this molecule here, CC(C)(C)n1nnnc1C(NCCNc1ccnc2cc(Cl)ccc12)c1ccc(Cl)cc1 (centres unmarked) [TK900E] , and I need its recorded Cmax. 940

// next entry
Please report the recorded Cmax for CC(C)(C)n1nnnc1C(NCCNc1ccnc2cc(Cl)ccc12)c1ccc(Cl)c(Cl)c1 (centres unmarked) [TK900D] . 540

* * *

protocol: pharmacokinetic evaluation in mice (oral and IV), blood levels by LC-MS/MS
Type: in vivo, C57/BL6 mice
runConditions: male C57/BL6 mice, oral 40 mg/kg, blood
propertyLabel: Cmax (nM)
Answers are plain numbers, in nM.

For the molecule CC(C)(C)n1nnnc1C(NCCNc1ccnc2cc(Cl)ccc12)c1ccc(Cl)cc1 (centres unmarked) [TK900E] , what Cmax is on record? 2810

Please find the next molecule below.
Item under review: CC(C)(C)n1nnnc1C(NCCNc1ccnc2cc(Cl)ccc12)c1ccc(Cl)c(Cl)c1 (centres unmarked) [TK900D] . Reported Cmax? 790

* * *

protocol: pharmacokinetic evaluation in mice (oral and IV), blood levels by LC-MS/MS
Assay type: in vivo, C57/BL6 mice
runConditions: male, C57/BL6, mouse, whole blood, other: oral and intravenous; mice, over all oral and IV dose groups; read-out: apparent half-life, range
propertyLabel: half-life

Could you share which half-life value was measured for CC(C)(C)n1nnnc1C(NCCNc1ccnc2cc(Cl)ccc12)c1ccc(Cl)c(Cl)c1 (centres unmarked) [TK900D] ? 2 to 6 h

Others:
Entry under review: CC(C)(C)n1nnnc1C(NCCNc1ccnc2cc(Cl)ccc12)c1ccc(Cl)cc1 (centres unmarked) [TK900E] . Reported half-life? 1.6 to 4 h

* * *

protocol: pharmacokinetic evaluation in mice (oral and IV), blood levels by LC-MS/MS
Format: in vivo, C57/BL6 mice
runConditions: male, C57/BL6, mouse, whole blood; mice, as summarised in abstract (matches oral 40 and 20 mg/kg groups); read-out: apparent half-life, range
Would you kindly list half-life for each of these compounds?

Entry under review: CC(C)(C)n1nnnc1C(NCCNc1ccnc2cc(Cl)ccc12)c1ccc(Cl)cc1 (centres unmarked) [TK900E] . Reported half-life? 3.6 to 4 h

Shift focus to the following entry.
Any idea what half-life was measured for CC(C)(C)n1nnnc1C(NCCNc1ccnc2cc(Cl)ccc12)c1ccc(Cl)c(Cl)c1 (centres unmarked) [TK900D] ? 4 to 6 h
